# experiment-summary: Clearance in Sprague-Dawley rat at 2 mg/kg, iv and 5 mg/kg, po
# Format: ADME, organism-based
# experimental-context: in vivo
outcome-measure: clearance (mL/min/kg)
Give just the numeric value; mL/min/kg need not be written.

The reported clearance of the compound CCCCCOC(=O)N1CCN(C(=O)[C@H](CCC(=O)O)NC(=O)c2cc(OCC3CCN(CCOC)CC3)cc(-c3ccccc3)n2)CC1 was 141

The reported clearance of the compound CCCCCOC(=O)N1CCN(C(=O)[C@H](CCC(=O)O)NC(=O)c2cc(N3CCC(CN(C)C)CC3)cc(-c3ccccc3)n2)CC1 was 92

The reported clearance of the compound CCOC(=O)N1CCN(C(=O)[C@H](CCC(=O)O)NC(=O)c2cc(N3CCCCC3)cc(-c3ccccc3)n2)CC1 was 34

The reported clearance of the compound CCCCCOC(=O)N1CCN(C(=O)[C@H](CCC(=O)O)NC(=O)c2cc(N3CCC(N)CC3)cc(-c3ccccc3)n2)CC1 was 32

The reported clearance of the compound CCCCCOC(=O)N1CCN(C(=O)[C@H](CCC(=O)O)NC(=O)c2cc(CCCN(CC)CC)cc(-c3ccccc3)n2)CC1 was 96

The reported clearance of the compound CCCCCOC(=O)N1CCN(C(=O)[C@H](CCC(=O)O)NC(=O)c2cc(C(=O)N3CCC(N(C)C)CC3)cc(-c3ccccc3)n2)CC1 was 37

The reported clearance of the compound CCCCCOC(=O)N1CCN(C(=O)[C@H](CCC(=O)O)NC(=O)c2cc(N3CCC(N(C)C)CC3)cc(-c3ccccc3)n2)CC1 was 81

----------
# experiment-summary: Clearance in Sprague-Dawley rat at 2 mg/kg, iv and 5 mg/kg, po
# Type: ADME, organism-based
# experimental-context: in vivo
What clearance was measured for each of the following?
Answer as a quantity: numeral, then unit.

The reported clearance of the compound CCCCCOC(=O)N1CCN(C(=O)[C@H](CCC(=O)O)NC(=O)c2cc(OCCOC)cc(-c3ccccc3)n2)CC1 was 46 mL/min/kg

The reported clearance of the compound CCCCCOC(=O)N1CCN(C(=O)[C@H](CCC(=O)O)NC(=O)c2cc(C(=O)N3CCC(OC)CC3)cc(-c3ccccc3)n2)CC1 was 54 mL/min/kg

The reported clearance of the compound CCCCCOC(=O)N1CCN(C(=O)[C@H](CCC(=O)O)NC(=O)c2cc(OC(=O)N3CCOCC3)cc(-c3ccccc3)n2)CC1 was 220 mL/min/kg

The reported clearance of the compound CCCCOc1cc(C(=O)N[C@@H](CCC(=O)O)C(=O)N2CCN(C(=O)OCC)CC2)nc(-c2ccccc2)c1 was 109 mL/min/kg

The reported clearance of the compound CCCCCOC(=O)N1CCN(C(=O)[C@H](CCC(=O)O)NC(=O)c2cc(OCC3CCN(C(C)C)CC3)cc(-c3ccccc3)n2)CC1 was 63 mL/min/kg

The reported clearance of the compound CCCCCOC(=O)N1CCN(C(=O)[C@H](CCC(=O)O)NC(=O)c2cc(O)cc(-c3ccccc3)n2)CC1 was 675 mL/min/kg

The reported clearance of the compound CCCCCOC(=O)N1CCN(C(=O)[C@H](CCC(=O)O)NC(=O)c2cc(NCCO)cc(-c3ccccc3)n2)CC1 was 103 mL/min/kg

----------
What pIC50 was measured for each of the following?
# experiment-summary: Antiplatelet aggregation activity against adenosine diphosphate-induced human platelet rich plasma assessed as inhibition of platelet aggregation by turbidimetric method
# Assay type: functional
# experimental-context: Homo sapiens, Platelet, Plasma
Scale explanation: pIC50 corresponds to minus log10 of a concentration expressed in moles per litre.

The reported pIC50 of the compound CCCCCCOC(=O)N1CCN(C(=O)[C@H](CCC(=O)O)NC(=O)c2cc(N3CCC(N4CCCC4)CC3)cc(-c3ccccc3)n2)CC1 was 5.92

The reported pIC50 of the compound CCCCCOC(=O)N1CCN(C(=O)[C@H](CCC(=O)O)NC(=O)c2cc(N3CCC(NC)CC3)cc(-c3ccccc3)n2)CC1 was 6.00

The reported pIC50 of the compound CCCCCOC(=O)N1CCN(C(=O)[C@H](CCC(=O)O)NC(=O)c2cc(N3CCC(OC)CC3)cc(-c3ccccc3)n2)CC1 was 5.41

----------
# experiment-summary: Antiplatelet aggregation activity against adenosine diphosphate-induced human platelet rich plasma assessed as inhibition of platelet aggregation by turbidimetric method
# Assay type: functional
# experimental-context: Homo sapiens, Platelet, Plasma
pIC50: −log10 of the molar value.
Rule: pIC50 under 5 gives N, otherwise Y.

Is it the case that COCCOC(=O)N1CCN(C(=O)[C@H](CCC(=O)O)NC(=O)c2cccc(-c3ccccc3)n2)CC1 has pIC50 reaching or exceeding 5?
N

Is it the case that CCCCCOC(=O)N1CCN(C(=O)[C@H](CCC(=O)O)NC(=O)c2cc(N3CCC(N4CCOCC4)CC3)cc(-c3ccccc3)n2)CC1 has pIC50 reaching or exceeding 5?
Y

Is it the case that CCOC(=O)N1CCN(C(=O)[C@H](CCC(=O)O)NC(=O)c2cccc(-c3ccccc3)n2)CC1 has pIC50 reaching or exceeding 5?
N

Is it the case that CCCCCOC(=O)N1CCN(C(=O)[C@H](CCC(=O)O)NC(=O)c2cc(CCCOC)cc(-c3ccccc3)n2)CC1 has pIC50 reaching or exceeding 5?
Y

Is it the case that O=C(O)CC[C@H](NC(=O)c1cccc(-c2ccccc2)n1)C(=O)N1CCN(C(=O)OCC2CCC2)CC1 has pIC50 reaching or exceeding 5?
N

Is it the case that CCCCCOC(=O)N1CCN(C(=O)[C@H](CCC(=O)O)NC(=O)c2cc(C(=O)N(C)C)cc(-c3ccccc3)n2)CC1 has pIC50 reaching or exceeding 5?
Y

Is it the case that Cc1cccc(N2CCN(C(=O)[C@H](CCC(=O)O)NC(=O)c3cccc(-c4ccccc4)n3)CC2)c1 has pIC50 reaching or exceeding 5?
N

Is it the case that O=C(O)CC[C@H](NC(=O)c1cccc(-c2ccccc2)n1)C(=O)N1CCN(C(=O)c2ccccc2)CC1 has pIC50 reaching or exceeding 5?
N

Is it the case that CCCNC(=S)N1CCN(C(=O)[C@H](CCC(=O)O)NC(=O)c2cccc(-c3ccccc3)n2)CC1 has pIC50 reaching or exceeding 5?
N

Is it the case that CCCCCOC(=O)N1CCN(C(=O)[C@H](CCC(=O)O)NC(=O)c2cc(NC(=O)CN(C)C)cc(-c3ccccc3)n2)CC1 has pIC50 reaching or exceeding 5?
Y

Is it the case that CCOC(=O)N1CCN(C(=O)[C@H](CCC(=O)O)NC(=O)c2cc(N3CCC(N)CC3)cc(-c3ccccc3)n2)CC1 has pIC50 reaching or exceeding 5?
Y

Is it the case that CCCCCOC(=O)N1CCN(C(=O)[C@H](CCC(=O)O)NC(=O)c2cc(NC(=O)CNC)cc(-c3ccccc3)n2)CC1 has pIC50 reaching or exceeding 5?
N

Is it the case that CCCCOC(=O)N1CCN(C(=O)[C@H](CCC(=O)O)NC(=O)c2cc(OC(=O)N(C)C3CCOC3)cc(-c3ccccc3)n2)CC1 (stereo partly specified) has pIC50 reaching or exceeding 5?
Y

Is it the case that CCCCOC(=O)N1CCN(C(=O)[C@H](CCC(=O)O)NC(=O)c2cc(OCC3CCN(C(=O)C(F)(F)F)CC3)cc(-c3ccccc3)n2)CC1 has pIC50 reaching or exceeding 5?
Y

Is it the case that CCCCCOC(=O)N1CCN(C(=O)[C@H](CCC(=O)O)NC(=O)c2cc(OC(=O)N3CC[C@H](OC)C3)cc(-c3ccccc3)n2)CC1 has pIC50 reaching or exceeding 5?
Y

----------
What pIC50 was measured for each of the following?
# experiment-summary: Antiplatelet aggregation activity against adenosine diphosphate-induced human platelet rich plasma assessed as inhibition of platelet aggregation by turbidimetric method
# Assay type: functional
# experimental-context: Homo sapiens, Platelet, Plasma
Scale explanation: pIC50 corresponds to minus log10 of a concentration expressed in moles per litre.

The reported pIC50 of the compound CCOC(=O)N1CCN(C(=O)[C@H](CCC(=O)O)NC(=O)c2cc(NCCOC)cc(-c3ccccc3)n2)CC1 was 4.85

The reported pIC50 of the compound CCCCCOC(=O)N1CCN(C(=O)[C@H](CCC(=O)O)NC(=O)c2cc(N3CCC(CO)CC3)cc(-c3ccccc3)n2)CC1 was 5.74

The reported pIC50 of the compound CCCCOC(=O)N1CCN(C(=O)[C@H](CCC(=O)O)NC(=O)c2cc(OC3CCNCC3)cc(-c3ccccc3)n2)CC1 was 5.96

The reported pIC50 of the compound CCCCCOC(=O)N1CCN(C(=O)[C@H](CCC(=O)O)NC(=O)c2cc(C(=O)N3CCC(OC)CC3)cc(-c3ccccc3)n2)CC1 was 6.34

The reported pIC50 of the compound CCCCCOC(=O)N1CCN(C(=O)[C@H](CCC(=O)O)NC(=O)c2cc(OC(=O)N(C)C)cc(-c3ccccc3)n2)CC1 was 5.54

The reported pIC50 of the compound CCCCOC(=O)N1CCN(C(=O)[C@H](CCC(=O)O)NC(=O)c2cccc(-c3ccccc3)n2)CC1 was 4.55

The reported pIC50 of the compound CCOC(=O)N1CCN(C(=O)[C@H](CCC(=O)O)NC(=O)c2cc(OCCCO)cc(-c3ccccc3)n2)CC1 was 5.05

The reported pIC50 of the compound CCCCCOC(=O)N1CCN(C(=O)[C@H](CCC(=O)O)NC(=O)c2cc(OC3CCN(C(=O)C(F)(F)F)CC3)cc(-c3ccccc3)n2)CC1 was 5.33

The reported pIC50 of the compound CCCCOC(=O)N1CCN(C(=O)[C@H](CCC(=O)O)NC(=O)c2cc(OC3CCN(C(=O)OCC)CC3)cc(-c3ccccc3)n2)CC1 was 5.43

The reported pIC50 of the compound CCCOC(=O)N1CCN(C(=O)[C@H](CCC(=O)O)NC(=O)c2cccc(-c3ccccc3)n2)CC1 was 4.21

The reported pIC50 of the compound CCNC(=S)N1CCN(C(=O)[C@H](CCC(=O)O)NC(=O)c2cccc(-c3ccccc3)n2)CC1 was 4.41

The reported pIC50 of the compound CCCCCOC(=O)N1CCN(C(=O)[C@H](CCC(=O)O)NC(=O)c2cc(C(=O)N(C)CCCN(C)C)cc(-c3ccccc3)n2)CC1 was 6.38
